Assay: inhibitors of DENV2 cytopathic effect, primary screen, cell-based, plate reader, single concentration (AID 651640);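 also: 0% = median of neutral control wells and 100% = median of positive control wells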
Conditions: DENV2-infected cells, cytopathic effect rescue, at 9.99 µM, active compounds read high
The whole screen tested about 350,000 compounds, of which about 6,000 (1.7%) were called active. Inconclusive results (about 5%) are left out. Shown is part of a subset that was picked to be rich in actives.
MEASURE: CPE inhibition (%)
Give just the number in %; leave the unit off.

Worked cases, CPE inhibition given:
# SUBSTANCE SMILES, MEASURE, UNIT ANNOTATION, MEASUREMENT
data = [
    ("COc1ccc(NC(=O)N(C)C[C@H]2OCCCC[C@H](C)Oc3ccc(NS(=O)(=O)c4ccc(Cl)cc4)cc3C(=O)N([C@@H](C)CO)C[C@H]2C)cc1", "CPE inhibition", "%", 12.8),
    ("COc1ccccc1NC(=O)N[C@H]1CC[C@H](CCn2cc(-c3cccnc3)nn2)O[C@@H]1CO", "CPE inhibition", "%", 7.27),
    ("COc1ccc(NC(=O)N(C)C[C@H]2OCCCC[C@H](C)Oc3ccc(NC(=O)NC4CCCCC4)cc3C(=O)N([C@@H](C)CO)C[C@@H]2C)cc1", "CPE inhibition", "%", 76.4),
    ("COc1ccc(NC(=O)N(C)C[C@H]2OCCCC[C@@H](C)Oc3ccc(NC(=O)c4ccncc4)cc3C(=O)N([C@@H](C)CO)C[C@H]2C)cc1", "CPE inhibition", "%", 4.05),
    ("Cc1noc(C)c1S(=O)(=O)Nc1ccc2c(c1)C(=O)N([C@H](C)CO)C[C@H](C)[C@H](CN(C)S(C)(=O)=O)OCCCC[C@H](C)O2", "CPE inhibition", "%", -2.38),
    ("N#Cc1ccc(-c2ccc([C@@H]3[C@H]4CNC[C@@H]3N4Cc3cc(F)ccc3F)cc2)cc1", "CPE inhibition", "%", -0.209),
]

We now examine a further compound.
*Q* Find the recorded CPE inhibition belonging to COc1ccc(NC(=O)N(C)C[C@@H]2OCCCC[C@H](C)Oc3ccc(NC(=O)c4ccccc4)cc3C(=O)N([C@H](C)CO)C[C@H]2C)cc1 and report it.
*A* -12.7

====

Test: inhibitors of DENV2 cytopathic effect, primary screen, cell-based, plate reader, single concentration (AID 651640);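 also: 0% = median of neutral control wells and 100% = median of positive control wells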
Conditions: DENV2-infected cells, cytopathic effect rescue, at 9.99 µM, active compounds read high
The campaign covered roughly 350,000 compounds. About 6,000 (1.7%) were called active. Not shown: some 5% with an inconclusive outcome. What follows is part of a selection rich in actives, with near analogues and random picks from the rest.
// reported CPE inhibition per item
Give just the number in %; leave the unit off.

Worked cases, CPE inhibition given:
# SUBSTANCE SMILES, UNIT ANNOTATION, CPE inhibition
measured = [
    ("COC(=O)[C@@H]1[C@@H](CO)[C@@H]2Cn3c(ccc(-c4ccccc4F)c3=O)[C@@H]2N1CC1CCOCC1", "%", -7.38),
    ("COCCNC(=O)[C@H]1[C@H](CO)[C@H]2Cn3c(ccc(-c4ccccc4F)c3=O)[C@H]2N1C(=O)C1CCC1", "%", -1.96),
    ("C[C@@H]1CN([C@@H](C)CO)C(=O)c2cc(NC(=O)Nc3cccc4ccccc34)ccc2O[C@@H](C)CCCCO[C@@H]1CN(C)S(=O)(=O)c1ccc(Cl)cc1", "%", -12.5),
]

We now examine a further molecule.
*Q* Find the recorded CPE inhibition belonging to CN(C)C(=O)c1cccc(-c2ccc3c(c2)[C@@H]2[C@@H](CCN2Cc2nccs2)[C@@H](CO)N3)c1 and report it.
*A* -14
